All values here come from patent US20180085455A1.

ASSAY_SYSTEM: T1, recombinant human ErbB3 protein (R&D systems) (human, UniProt P21860 20-643)
T1 construct: Bought recombinant protein; also called HER3
PROCEDURE_SUMMARY: BLI (Octet QK384), human ErbB3 immobilized on AR2G sensor, IgG at 12.5-50 nM
OBSERVATION_TYPE: koff

These solved cases illustrate the format of a correct answer.
[
  {
    "BINDER": "442M5 (antibody, V domains shown, IgG1 (Selexis 085 vector, CHO)) VH: EVQLLESGGGLVQPGGSLRLSCAASGFTFSDYDMSWVRQAPGKGLEWVSTIDLDSGSIYYADSVQGRFTISRDNSKNTLYLQMNSLRAEDTAVYYCAKDLHMGPEGPFDYWGQGTLVTVSS VL: QSVLTQPPSASGTPGQRVTISCSGSSSNIGSNSVSWYQQLPGTAPKLLIYSDNHRPSGVPDRFSGSKSGTSASLAISGLRSEDEADYYCHAWDSSLWGDVFGGGTKLTVLG",
    "TEST_RESULT": "< 1e-07 s⁻¹"
  },
  {
    "BINDER": "442M10 (antibody, V domains shown, IgG1 (Selexis 085 vector, CHO)) VH: EVQLLESGGGLVQPGGSLRLSCAASGFTFSDYDMSWVRQAPGKGLEWVSSIYPDSGSTDYADSVQGRFTISRDNSKNTLYLQMNSLRAEDTAVYYCAKDLHMWPEGPFDYWGQGTLVTVSS VL: QSVLTQPPSASGTPGQRVTISCSGSSSNIGSNSVSWYQQLPGTAPKLLIYADNFRPSGVPDRFSGSKSGTSASLAISGLRSEDEADYYCAAWDSSLSGYVFGGGTKLTVLG",
    "TEST_RESULT": "< 1e-07 s⁻¹"
  }
]

Here is the next item to consider.
Q: # get_value(readout='koff', item= 442S6 (antibody, V domains shown, IgG1 (Selexis 085 vector, CHO)) VH: EVQLLESGGGLVQPGGSLRLSCAASGFTFSDYDMSWVRQAPGKGLEWVSSIYPDSGSTDYADSVQGRFTISRDNSKNTLYLQMNSLRAEDTAVYYCAKDRHMWPEGPFDYWGQGTLVTVSS VL: QSVLTQPPSASGTPGQRVTISCSGSSSNIGSNSGSWYQQLPGTAPKLLIYADNWRPSGVPDRFSGSKSGTSASLAISGLRSEDEADYYCAAWDSSLSGYVFGGGTKLTVLG )
Ans: < 1e-07 s⁻¹
